Biological target: full-length human RORγt (Homo sapiens (Human))
Sequence (P51449 other isoform, or with tags, fused parts or gaps): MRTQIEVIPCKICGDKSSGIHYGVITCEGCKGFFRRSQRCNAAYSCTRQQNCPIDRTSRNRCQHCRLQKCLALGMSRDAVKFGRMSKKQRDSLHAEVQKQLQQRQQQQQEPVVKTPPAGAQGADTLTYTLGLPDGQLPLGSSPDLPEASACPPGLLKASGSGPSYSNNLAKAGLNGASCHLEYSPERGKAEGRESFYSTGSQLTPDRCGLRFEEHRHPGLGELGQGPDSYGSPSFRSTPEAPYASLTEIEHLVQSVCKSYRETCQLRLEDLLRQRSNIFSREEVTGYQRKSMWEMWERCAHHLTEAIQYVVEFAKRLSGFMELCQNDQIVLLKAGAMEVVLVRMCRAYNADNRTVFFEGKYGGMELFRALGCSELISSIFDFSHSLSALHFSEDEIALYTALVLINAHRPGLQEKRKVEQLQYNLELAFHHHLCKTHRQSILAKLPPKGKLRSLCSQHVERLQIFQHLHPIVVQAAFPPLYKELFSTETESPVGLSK
Assay: RORγt (full-length human) reporter assay, conditions A or B
Type: cell-based
Settings: read-out: RORγt (FL) Reporter Assay A or B, % inhibition @ 6 μM; 6 μM compound concentration
The entries below are paired with their reported inhibition at 6 µM.
Report as a plain number; the unit % is understood.

Example results:
CCc1nc(C(=O)NC[C@]2(O)CC[C@@H](S(C)(=O)=O)CC2)c(C#N)n1-c1cnc(CCC(F)(F)F)cc1OC [Example 118]: 54
CCc1nc(C(=O)NC[C@]2(O)CC[C@@H](S(C)(=O)=O)CC2)cn1-c1c(F)cc(CC(C)C(F)(F)F)cc1F (stereo partly shown) [Example 84]: 35
CCc1nc(C(=O)NC[C@H]2CC[C@H](S(C)(=O)=O)CC2)c(F)n1-c1ccc(CCC(F)(F)F)cc1OC [Example 13]: 95
CCc1nc(C(=O)NC[C@]2(C#N)CC[C@@H](S(C)(=O)=O)CC2)c(C#N)n1-c1ncc(CC(C)(C)C(F)(F)F)cc1OC [Example 124]: 105
COc1cc(N[C@H](C)C(F)(F)F)ccc1-n1c(CC(C)C)nc(C(=O)NC[C@H]2CC[C@H](S(C)(=O)=O)CC2)c1Cl [Example 9]: 101
CCc1nc(C(=O)NC[C@]2(O)CC[C@@H](S(C)(=O)=O)CC2)c(C#N)n1-c1ccc(CCC(F)(F)F)cc1OC(F)F [Example 25]: 101
CCc1nc(C(=O)NC[C@]2(O)CC[C@@H](S(C)(=O)=O)CC2)c(C)n1-c1ncc(CC(C)(C)C(F)(F)F)cc1OC [Example 127]: 98
CCc1nc(C(=O)NC[C@H]2CC[C@H](S(C)(=O)=O)CC2)c(C#N)n1-c1ccc(CCC(F)(F)F)cc1OC(F)F [Example 26]: 96

IN: Could you tell me which inhibition at 6 µM is on file for CCc1nc(C(=O)NC[C@]2(O)CC[C@@H](S(C)(=O)=O)CC2)c(C)n1-c1ncc(CC(C)(C)C(F)(F)F)cc1OC(F)F [Example 50] ?
OUT: 90

IN: May I ask what inhibition at 6 µM has been recorded for CCc1nc(C(=O)NC[C@]2(O)CC[C@@H](S(C)(=O)=O)CC2)c(F)n1-c1ccc(CCC(F)(F)F)cc1OC [Example 14] ?
OUT: 83

IN: Bench note: what inhibition at 6 µM did CCc1nc(C(=O)NC[C@]2(O)CC[C@@H](S(C)(=O)=O)CC2)c(C#N)n1-c1ccc(CC(C)(C)C(F)(F)F)cc1OC(F)F [Example 24] show?
OUT: 104

IN: Could you tell me which inhibition at 6 µM is on file for CCc1nc(C(=O)NC[C@]2(C#N)CC[C@@H](S(C)(=O)=O)CC2)c(C)n1-c1ncc(CC(C)(C)C(F)(F)F)cc1OC [Example 128] ?
OUT: 105

IN: Need inhibition at 6 µM, item CCc1nc(C(=O)NC[C@H]2CC[C@H](S(C)(=O)=O)CC2)c(C)n1-c1ncc(CC(C)(C)C(F)(F)F)cc1OC [Example 126]
OUT: 100

---

Molecular target: full-length human RORγt (Homo sapiens (Human))
Assay: RORγt (full-length human) reporter assay, conditions A or B
Details: HEK293T cells; read-out: RORγt (FL) Reporter Assay A or B, IC50
Entries and their IC50 values follow.
Give just the numeric value; µM need not be written.

# annotated cases, reported IC50 shown
CCc1nc(C(=O)NC[C@]2(C#N)CC[C@@H](S(C)(=O)=O)CC2)c(C#N)n1-c1ncc(CCC(F)(F)F)cc1OC: 1.7
CCc1nc(C(=O)NC[C@]2(O)CC[C@@H](S(C)(=O)=O)CC2)c(Cl)n1-c1ccc(CC(C)C)cc1OC [Example 90]: 0.021

IN: Name the reported IC50 value associated with the compound CCc1nc(C(=O)NC[C@H]2CC[C@H](S(=O)(=O)NC)CC2)c(Cl)n1-c1ncc(CC(C)(C)C(F)(F)F)cc1OC(F)F
OUT: 0.05

Data credit: patent US11345666B2
